tested on: SR leukemia; assay: NCI-60 one-dose screen, 48 h (100 = growth as untreated, 0 = no growth, -100 = all killed); conditions: 10 µM unless noted
About 83,000 compounds went through this panel and 20% of them were active in at least one assay; those are over-represented in the sample as a whole.
Below is a list of entries, each paired with its recorded growth value.
property: growth (%)

INSERT INTO assay_data (compound, property, measure_unit, value) VALUES
  ('Cc1ccc(/C=C/c2nn3c(-c4ccco4)nnc3s2)cc1', 'growth', '%', 77.3),
  ('O=S(=O)(Nc1cc(Cl)c(F)c(Cl)c1)c1ccc(-c2cnc(C3CC3)o2)cc1', 'growth', '%', 36),
  ('Nc1nc(-c2cccc([N+](=O)[O-])c2)c(N=Nc2ccccc2Cl)s1', 'growth', '%', 59.1),
  ('CN1C(=O)N(C)C2C1NN=c1s/c(=C\c3ccccn3)c(=O)n12 (stereo not given)', 'growth', '%', 114),
  ('CCOC(=O)c1c(Nc2ccccc2)nn2c(-c3ccc(OC)c(OC)c3)ccnc12', 'growth', '%', 23.6),
  ('O=C(CSc1ccc(-c2nc3ccccc3[nH]2)cn1)N1CCN(c2ccccc2F)CC1', 'growth', '%', 52.5),
  ('CCN1C(=O)N(CC)C2C1NN=C1SC(c3ccccc3)=CC(=O)N12 (stereo not given)', 'growth', '%', 16.2),
  ('CS(=O)(=O)c1ccc2c(c1)c1c(n2S(=O)(=O)c2ccc(Cl)cc2)CCCC1', 'growth', '%', 12.3),
  ('COc1cc(C2=NN(C(C)=O)C(c3ccc(N4CCOCC4)cc3)C2)cc(OC)c1OC (stereo not given)', 'growth', '%', 108),
  ('O=[N+]([O-])c1ccc(-c2nnc(SCc3ccc(O)c4ncccc34)n2-c2ccccc2)cc1', 'growth', '%', 40.6);
